Each recorded value in this set is attributed to paper PMC7181131.

This section presents compounds with their documented MIC values.
- System: Aspergillus fumigatus ATCC 204305
- assay details: Antifungal microdilution broth method, AF
- Assay type: cell-based
- test parameters: ATCC204305, 48 h, read-out: MIC AF
metric name: MIC

compound | val
COC(=O)[C@@H](NC(=O)c1cnccn1)C(C)C [PC-L-Val-Me, methyl (pyrazine-2-carbonyl)-L-valinate] | > 500 µM
COC(=O)[C@H](COCc1ccccc1)NC(=O)c1cnccn1 [PC-L-OBn-Ser-Me] | > 250 µM
CCOC(=O)[C@H](C)NC(=O)c1cnccn1 [PC-L-Ala-Et, ethyl (pyrazine-2-carbonyl)-L-alaninate] | > 500 µM
CCOC(=O)[C@@H](C)NC(=O)c1cnccn1 [PC-D-Ala-Et, ethyl (pyrazine-2-carbonyl)-D-alaninate] | > 500 µM
COC(=O)[C@@H](NC(=O)c1cnccn1)[C@@H](C)O [PC-L-Thr-Me] | > 500 µM
COC(=O)[C@@H](COC(C)(C)C)NC(=O)c1cnccn1 [PC-D-OtBu-Ser-Me] | > 500 µM
COC(=O)[C@H](NC(=O)c1cnccn1)[C@H](C)O [PC-D-Thr-Me] | > 500 µM
COC(=O)[C@H](CCSC)NC(=O)c1cnccn1 [PC-L-Met-Me] | > 500 µM
CCOC(=O)CC[C@H](NC(=O)c1cnccn1)C(=O)OCC [PC-L-Glu-diEt] | > 500 µM
CCOC(=O)[C@@H](Cc1c[nH]c2ccccc12)NC(=O)c1cnccn1 [PC-D-Trp-Et] | > 500 µM
C=C(NC(=O)c1cnccn1)C(=O)OC [PC-MeAcr] | > 125 µM
C[C@H](NC(=O)c1cnccn1)C(=O)O [PC-L-Ala, (pyrazine-2-carbonyl)-L-alanine] | > 500 µM
COC(=O)[C@H](C)NC(=O)c1cnccn1 (racemic) [PC-DL-Ala-Me, methyl (pyrazine-2-carbonyl)alaninate] | > 500 µM
COC(=O)[C@H](COC(C)(C)C)NC(=O)c1cnccn1 [PC-L-OtBu-Ser-Me] | > 500 µM
COC(=O)CC[C@@H](NC(=O)c1cnccn1)C(=O)OC [PC-D-Glu-diMe] | > 500 µM
COC(=O)[C@@H](CO)NC(=O)c1cnccn1 [PC-D-Ser-Me, methyl (pyrazine-2-carbonyl)-D-serinate] | > 500 µM
COC(=O)[C@H](NC(=O)c1cnccn1)[C@H](C)OC(C)(C)C [PC-D-OtBu-Thr-Me] | > 500 µM

* * *

We begin with a simple list: items and their reported MIC.
- Tested on: Mycobacterium aurum DSM 43999 (ATCC 23366)
- assay details: Microplate Alamar Blue Assay (MABA) microdilution, M. aurum
- Format: cell-based
- test parameters: Mycolicibacterium aurum, pH 6, read-out: MIC M. aurum µg/mL

molecule | assayed target | MIC
CCOC(=O)CC[C@H](NC(=O)c1cnccn1)C(=O)OCC | Mycobacterium aurum DSM 43999 (ATCC 23366) | ≥ 500 µg/mL
COC(=O)[C@H](CO)NC(=O)c1cnccn1 [PC-L-Ser-Me, methyl (pyrazine-2-carbonyl)-L-serinate] | Mycobacterium aurum DSM 43999 (ATCC 23366) | ≥ 500 µg/mL
CCOC(=O)CNC(=O)c1cnccn1 [PC-Gly-Et, ethyl (pyrazine-2-carbonyl)glycinate] | Mycobacterium aurum DSM 43999 (ATCC 23366) | ≥ 125 µg/mL
COC(=O)[C@H](C)NC(=O)c1cnccn1 (racemic) [PC-DL-Ala-Me, methyl (pyrazine-2-carbonyl)alaninate] | Mycobacterium aurum DSM 43999 (ATCC 23366) | ≥ 125 µg/mL
CCOC(=O)[C@H](C)NC(=O)c1cnccn1 [PC-L-Ala-Et, ethyl (pyrazine-2-carbonyl)-L-alaninate] | Mycobacterium aurum DSM 43999 (ATCC 23366) | ≥ 125 µg/mL
COC(=O)[C@@H](Cc1ccc(O)cc1)NC(=O)c1cnccn1 | Mycobacterium aurum DSM 43999 (ATCC 23366) | ≥ 250 µg/mL
COC(=O)[C@H](NC(=O)c1cnccn1)C(C)C [PC-D-Val-Me, methyl (pyrazine-2-carbonyl)-D-valinate] | Mycobacterium aurum DSM 43999 (ATCC 23366) | ≥ 125 µg/mL
CCOC(=O)C[C@H](NC(=O)c1cnccn1)C(=O)OCC | Mycobacterium aurum DSM 43999 (ATCC 23366) | ≥ 125 µg/mL
COC(=O)[C@@H](NC(=O)c1cnccn1)C(C)C [PC-L-Val-Me, methyl (pyrazine-2-carbonyl)-L-valinate] | Mycobacterium aurum DSM 43999 (ATCC 23366) | ≥ 125 µg/mL
COC(=O)[C@@H](COC(C)(C)C)NC(=O)c1cnccn1 | Mycobacterium aurum DSM 43999 (ATCC 23366) | ≥ 500 µg/mL
COC(=O)[C@H](NC(=O)c1cnccn1)[C@H](C)OC(C)(C)C | Mycobacterium aurum DSM 43999 (ATCC 23366) | ≥ 500 µg/mL
COC(=O)[C@@H](NC(=O)c1cnccn1)[C@@H](C)O | Mycobacterium aurum DSM 43999 (ATCC 23366) | ≥ 500 µg/mL
COC(=O)[C@H](NC(=O)c1cnccn1)[C@H](C)O | Mycobacterium aurum DSM 43999 (ATCC 23366) | ≥ 500 µg/mL
COC(=O)CC[C@@H](NC(=O)c1cnccn1)C(=O)OC | Mycobacterium aurum DSM 43999 (ATCC 23366) | ≥ 500 µg/mL
CCOC(=O)[C@@H](C)NC(=O)c1cnccn1 [PC-D-Ala-Et, ethyl (pyrazine-2-carbonyl)-D-alaninate] | Mycobacterium aurum DSM 43999 (ATCC 23366) | ≥ 125 µg/mL
